The measured values listed here are drawn from patent US20110160223A1.

# assaySystem: NMDA receptor (NR1 + NR2 subunits) (Rattus norvegicus, UniProt P35439+Q00960)
# Sequence (Q00960 27-1482, other chains not shown): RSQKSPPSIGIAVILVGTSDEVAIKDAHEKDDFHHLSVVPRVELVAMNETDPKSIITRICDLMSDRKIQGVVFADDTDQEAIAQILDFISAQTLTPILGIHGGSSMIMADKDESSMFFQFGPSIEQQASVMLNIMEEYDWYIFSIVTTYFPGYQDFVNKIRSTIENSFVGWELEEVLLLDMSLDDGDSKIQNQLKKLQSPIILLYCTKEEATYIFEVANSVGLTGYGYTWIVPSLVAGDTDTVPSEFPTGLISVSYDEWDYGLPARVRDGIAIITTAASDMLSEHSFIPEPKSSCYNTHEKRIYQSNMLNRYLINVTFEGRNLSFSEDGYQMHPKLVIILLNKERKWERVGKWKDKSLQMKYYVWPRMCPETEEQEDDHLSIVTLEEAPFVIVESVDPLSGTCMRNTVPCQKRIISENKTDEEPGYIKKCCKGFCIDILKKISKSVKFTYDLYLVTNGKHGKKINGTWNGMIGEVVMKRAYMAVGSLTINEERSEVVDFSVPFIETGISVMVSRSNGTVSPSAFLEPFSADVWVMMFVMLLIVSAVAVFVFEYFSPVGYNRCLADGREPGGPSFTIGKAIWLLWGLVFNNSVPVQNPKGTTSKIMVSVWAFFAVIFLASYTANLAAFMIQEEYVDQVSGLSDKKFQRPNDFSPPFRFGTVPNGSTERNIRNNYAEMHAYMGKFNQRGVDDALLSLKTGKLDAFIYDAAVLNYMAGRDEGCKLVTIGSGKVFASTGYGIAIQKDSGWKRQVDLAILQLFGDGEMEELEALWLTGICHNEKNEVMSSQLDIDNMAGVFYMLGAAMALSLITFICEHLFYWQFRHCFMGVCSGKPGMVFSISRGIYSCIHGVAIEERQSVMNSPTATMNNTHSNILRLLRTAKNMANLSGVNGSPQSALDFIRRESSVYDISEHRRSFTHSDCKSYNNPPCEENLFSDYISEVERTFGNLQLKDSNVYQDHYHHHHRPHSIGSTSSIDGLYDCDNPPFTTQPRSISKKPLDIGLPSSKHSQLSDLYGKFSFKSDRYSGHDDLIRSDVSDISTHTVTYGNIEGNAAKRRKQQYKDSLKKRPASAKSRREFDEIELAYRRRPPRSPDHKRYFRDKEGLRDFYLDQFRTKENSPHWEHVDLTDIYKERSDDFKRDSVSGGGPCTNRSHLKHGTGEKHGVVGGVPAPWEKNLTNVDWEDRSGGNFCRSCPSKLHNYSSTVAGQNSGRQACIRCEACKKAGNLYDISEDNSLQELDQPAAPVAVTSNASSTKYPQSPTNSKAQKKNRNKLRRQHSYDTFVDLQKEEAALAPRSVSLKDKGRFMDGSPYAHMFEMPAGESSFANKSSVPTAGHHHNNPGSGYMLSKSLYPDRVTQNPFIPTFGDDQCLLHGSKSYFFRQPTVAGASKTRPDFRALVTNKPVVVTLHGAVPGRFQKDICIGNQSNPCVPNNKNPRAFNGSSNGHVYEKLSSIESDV
# procedureSummary: Two electrode voltage clamp recording from Xenopus laevis oocytes (pH dependence of NMDA antagonism)
# Format: cell-based
# conditionInfo: pH 6.9; Table 19; read-out: IC50 at pH 6.9
Consider the following compounds; for each one, report its pIC50.
Answers are plain numbers, as −log10 of the molar value.

Look over these answered cases.
N#Cc1ccccc1N1CCN(C[C@@H](O)COc2ccc(O)cc2)CC1 | 5.49
COc1ccc(N2CCN(C[C@@H](O)COc3ccc(O)cc3)CC2)cc1 | 6.25
Oc1ccc(OCC(O)CN2CCN(c3ccccc3Cl)CC2)cc1 (stereo not shown) | 6.01

Hi there! I need pIC50 for each item below, if you can.
1. Oc1ccc(OCC(O)CN2CCN(c3ccc(O)cc3)CC2)cc1 (stereo not shown)
2. Oc1ccc(OC[C@H](O)CN2CCN(c3ccc(F)cc3F)CC2)cc1
3. Oc1ccc(OC[C@H](O)CN2CCN(c3ccc(Cl)cc3)CC2)cc1
4. Oc1ccc(OC[C@H](O)CN2CCN(c3ccccc3F)CC2)cc1

Resp:
1: 6.24; 2: 6.28; 3: 7.10; 4: 6.27

* * *

# assaySystem: NMDA receptor (NR1 + NR2 subunits) (Rattus norvegicus, UniProt P35439+Q00960)
# procedureSummary: Two electrode voltage clamp recording from Xenopus laevis oocytes (pH dependence of NMDA antagonism)
# Assay type: cell-based
# conditionInfo: pH 6.9; Table 21; read-out: IC50 at pH 6.9
measureName: IC50
Answer with the figure and its unit, nothing else.

Hi there! I need IC50 for each item below, if you can.
1. O=C(CCc1ccc(O)cc1)NCCNc1ccc(Cl)c(Cl)c1
2. CS(=O)(=O)Nc1ccc(OCCNCCNc2ccc(Cl)c(Cl)c2)cc1
3. CS(=O)(=O)Nc1ccc(CCCN2CCN(c3ccc(Cl)c(Cl)c3)C2=O)cc1

Resp:
1: 210 nM; 2: 14 nM; 3: 160 nM

* * *

Consider the following compounds; for each one, report its pIC50.
# assaySystem: NMDA receptor (NR1 + NR2 subunits) (Rattus norvegicus, UniProt P35439+Q00960)
# procedureSummary: Two electrode voltage clamp recording from Xenopus laevis oocytes (pH dependence of NMDA antagonism)
# Format: cell-based
# conditionInfo: pH 7.6; Table 19; read-out: IC50 at pH 7.6
Numbers only, as −log10 of the molar value.

Hi there! I need pIC50 for each item below, if you can.
1. Oc1ccc(OC[C@H](O)CN2CCN(c3cccc(F)c3)CC2)cc1
2. Oc1ccc(OC[C@H](O)CN2CCN(c3cccc(Cl)c3)CC2)cc1
3. Oc1ccc(OC[C@H](O)CN2CCC(O)(c3ccccc3)CC2)cc1
4. Oc1ccc(OCC(O)CN2CCN(c3cccc(C(F)(F)F)c3)CC2)cc1 (stereo not shown)

Resp:
6.22
5.32
6.53
5.42
